Reference source: patent US8329745B2

Test target: mouse GOAT (Mus musculus, UniProt P0C7A3)
Construct: made in house; host or cells: Sf9 insect cells (baculovirus); crude membrane fraction used
Sequence (P0C7A3 1-435): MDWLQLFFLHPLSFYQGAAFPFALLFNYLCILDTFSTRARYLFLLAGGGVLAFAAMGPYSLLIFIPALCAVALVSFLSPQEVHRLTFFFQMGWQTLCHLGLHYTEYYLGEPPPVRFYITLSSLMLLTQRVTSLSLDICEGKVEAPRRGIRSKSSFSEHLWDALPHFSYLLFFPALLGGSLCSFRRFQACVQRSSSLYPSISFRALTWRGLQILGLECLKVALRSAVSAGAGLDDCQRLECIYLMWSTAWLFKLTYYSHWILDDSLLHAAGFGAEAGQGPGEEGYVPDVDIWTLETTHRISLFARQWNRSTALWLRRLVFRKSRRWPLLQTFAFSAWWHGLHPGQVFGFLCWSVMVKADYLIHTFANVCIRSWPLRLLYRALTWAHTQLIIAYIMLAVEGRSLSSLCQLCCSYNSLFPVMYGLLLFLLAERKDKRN
Test details: In vitro octanoylation assay: [3H]octanoyl transfer from octanoyl CoA to proghrelin-His8 by membranes of Sf9 cells expressing GOAT
Format: biochemical
Condition context: concentration not given
Measured endpoint: GOAT inhibitory activity/potency compared with BK1114

Compound	Test target	Test result
CCCCCCCC(C)(O)/C=C/[C@H](NC(=O)OCc1ccccc1)C(=O)NC(C)C (stereo partly drawn) [PH1176a]	mouse GOAT (Mus musculus, UniProt P0C7A3)	do not improve activity
CCCCCCCC(C)(O)C/C=C(/NC(=O)OCc1ccccc1)C(=O)NC(C)C (stereo not drawn) [PH1176b]	mouse GOAT (Mus musculus, UniProt P0C7A3)	do not improve activity

----------
pIC50: recorded values
Test target: UniProtKB P0C7A3
pIC50: −log10 of the molar value. Where a SMILES comes first, the peptide text is derived from it. [ ]: non-standard residue; d: D form. The star is where a group is joined. Octanoyl = CCCCCCCC(=O)*; Dap = NC[C@H](N)C(=O)O

Compound	pIC50
CCCCCCCC(O)/C=C/[C@H](NC(=O)OCc1ccccc1)C(=O)OC (some centres unmarked)	~4.05
CCCCCCCC(=O)NC[C@H](NC(=O)[C@H](CO)NC(=O)CN)C(=O)N[C@@H](Cc1ccccc1)C(=O)N[C@@H](CC(C)C)C(N)=O [Structure 2, [Dap^3]octanoyl-ghrelin (1-5)-NH2, reference compound] (H-GS[Dap](Octanoyl)FL-NH2)	~5.82
